target: Human FXIa (Homo sapiens); construct: Human FXIa (Enzyme Research Laboratories) was incubated; purchased Enzyme Research Laboratories; assay: Determination of FXIa inhibitory activity in vitro (fluorogenic substrate Z-Gly-Pro-Arg-AFC); type: biochemical; settings: selectivity, 25° C., residual enzyme activity (initial rate)
Sequence (P03951 388-625 limits assumed): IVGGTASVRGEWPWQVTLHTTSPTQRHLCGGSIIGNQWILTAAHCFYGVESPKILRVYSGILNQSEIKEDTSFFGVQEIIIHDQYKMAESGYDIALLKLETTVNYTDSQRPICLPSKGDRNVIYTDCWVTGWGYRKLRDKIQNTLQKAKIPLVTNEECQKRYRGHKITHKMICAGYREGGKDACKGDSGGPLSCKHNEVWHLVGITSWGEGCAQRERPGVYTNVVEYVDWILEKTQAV
Sequence (P03951 19-387 partner limits assumed): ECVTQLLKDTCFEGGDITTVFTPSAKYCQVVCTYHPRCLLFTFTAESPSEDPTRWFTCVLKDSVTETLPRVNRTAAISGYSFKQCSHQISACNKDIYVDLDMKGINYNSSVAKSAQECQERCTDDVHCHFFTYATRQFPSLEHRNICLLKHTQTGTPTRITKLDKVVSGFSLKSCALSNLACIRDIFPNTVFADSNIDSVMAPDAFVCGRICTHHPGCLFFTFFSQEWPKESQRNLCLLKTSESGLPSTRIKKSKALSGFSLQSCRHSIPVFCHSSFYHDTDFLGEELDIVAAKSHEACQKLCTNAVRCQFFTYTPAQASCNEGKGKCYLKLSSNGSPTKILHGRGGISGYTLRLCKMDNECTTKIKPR
pIC50: −log10 of the molar value.
REPORTED PROPERTY: pIC50

{"QUERY SMILES": "Cc1cc(CN)cc(C)c1CNC(=O)c1cc(Cl)c(C)s1", "pIC50": "< 4.40"}
{"QUERY SMILES": "CN1CCC(c2ccc(C(=O)NCc3ccc4c(N)nccc4c3)s2)CC1", "pIC50": "< 4.40"}
{"QUERY SMILES": "Cc1cc(OCC2CCN(C)CC2)c(C(=O)NCc2ccc3c(N)nccc3c2)s1", "pIC50": "< 4.40"}

Batch: pIC50 for all items listed.
1. Nc1nccc2cc(CNC(=O)c3cc4c(Cl)cccc4s3)ccc12
2. Cc1cc(C(=O)NCc2ccc3c(N)nccc3c2)sc1CN1CCN(c2ccncc2)CC1
3. CN1CCC(Cn2c(C(=O)NCc3ccc4c(N)nccc4c3)cc3ccccc32)CC1

Result string:
["< 4.40", "< 4.40", "< 4.40"]

* * *

Quick record: IC50, Human Factor XIIa (Homo sapiens).

These solved cases illustrate the format of a correct answer.
{"COMPOUND": "Nc1nccc2cc(CNC(=O)c3cc(Cl)c(COCCN4CCCCC4)s3)ccc12 [Example 7.07]", "IC50": "3 to 10 µM"}
{"COMPOUND": "Nc1nccc2cc(CNC(=O)c3cc(Cl)c(CN4CCN(c5ccccn5)CC4)s3)ccc12 [Example 5.17]", "IC50": "10 to 40 µM"}
{"COMPOUND": "CN(C)CCCOCc1sc(C(=O)NCc2ccc3c(N)nccc3c2)cc1Cl [Example 7.31]", "IC50": "1 to 3 µM"}
{"COMPOUND": "Nc1nccc2cc(CNC(=O)c3cc(Cl)c(Cc4ccccc4)s3)ccc12 [Example 25.08]", "IC50": "10 to 40 µM"}
{"COMPOUND": "COCCNCc1sc(C(=O)NCc2ccc3c(N)nccc3c2)cc1Cl [Example 2.09]", "IC50": "10 to 40 µM"}
{"COMPOUND": "CC(=O)NCCCNCc1sc(C(=O)NCc2ccc3c(N)nccc3c2)cc1Cl [Example 2.51]", "IC50": "10 to 40 µM"}

Please supply IC50 for each of the following items, keeping them in order.
1. CN1CCN(CCCNCc2sc(C(=O)NCc3ccc4c(N)nccc4c3)cc2Cl)CC1 [Example 2.37]
2. Nc1nccc2c1CC[C@H]2NC(=O)c1cc(Cl)c(CN2CCN(c3ccncc3)CC2)s1 [Example 5.23]
3. CN1CCC(CCn2nccc2C(=O)NCc2cc3c(N)nccc3s2)CC1 [Example 46.01]
4. CN1CCC(CCn2nc(Cl)cc2C(=O)NCc2ccc3c(N)nccc3c2)CC1 [Example 35.04]
5. Nc1nccc2cc(CNC(=O)c3cc(Cl)c(CNc4ccccc4)s3)ccc12 [Example 2.03]

Result string:
3 to 10 µM
10 to 40 µM
10 to 40 µM
< 1 µM
10 to 40 µM

# batch size: 6; output IC50 per entry
1. Cc1cc(C(=O)NCc2ccc3c(N)nccc3c2)sc1CN1CCN(c2ccncc2)CC1 [Example 5.20]
2. Nc1nccc2cc(CNC(=O)c3cc(Cl)c(CNCc4ccncc4)s3)ccc12 [Example 2.31]
3. Nc1nccc2cc(CNC(=O)c3cc(C4CC4)nn3CC3CCN(c4ccncc4)CC3)ccc12 [Example 35.05]
4. Nc1nccc2cc(CNC(=O)c3cc(Cl)c(CN4CCc5ccncc5C4)s3)ccc12 [Example 5.22]
5. Cc1cc(CCC2CCN(C)CC2)c(C(=O)NCc2ccc3c(N)nccc3c2)s1 [Example 26.12]
6. CN1CCC(N(C)Cc2sc(C(=O)NCc3ccc4c(N)nccc4c3)cc2Cl)CC1 [Example 2.47]

Result string:
1: 10 to 40 µM; 2: 3 to 10 µM; 3: 3 to 10 µM; 4: 3 to 10 µM; 5: 3 to 10 µM; 6: 10 to 40 µM

Hey, can you go through the list below and give me IC50 for every item?
1. CCN(CC)CCCOCc1sc(C(=O)NCc2ccc3c(N)nccc3c2)cc1Cl [Example 7.22]
2. Nc1nccc2cc(CNC(=O)c3cc(Cl)c(CNCCN4CCS(=O)(=O)CC4)s3)ccc12 [Example 2.25]
3. Cc1sc(C(=O)NCc2cc3c(N)nccc3s2)cc1Cl [Example 25.103]
4. Nc1nccc2cc(CNC(=O)c3cc(Cl)c(CN4CCC5(CC4)OCCO5)s3)ccc12 [Example 5.14]
5. CC(C)N1CCN(Cc2sc(C(=O)NCc3ccc4c(N)nccc4c3)cc2Cl)CC1 [Example 5.06]

Result string:
1: 1 to 3 µM; 2: 10 to 40 µM; 3: 10 to 40 µM; 4: 10 to 40 µM; 5: 10 to 40 µM

* * *

Target: Human Factor XIIa (Homo sapiens, UniProt P00748)
Sequence (P00748 373-615 limits assumed): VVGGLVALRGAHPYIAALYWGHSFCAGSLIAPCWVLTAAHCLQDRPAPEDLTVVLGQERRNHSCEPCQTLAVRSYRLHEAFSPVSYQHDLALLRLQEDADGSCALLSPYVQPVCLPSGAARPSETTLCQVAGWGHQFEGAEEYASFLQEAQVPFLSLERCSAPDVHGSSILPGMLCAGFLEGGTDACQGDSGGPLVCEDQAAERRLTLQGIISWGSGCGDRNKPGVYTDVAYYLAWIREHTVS
Sequence (P00748 20-372 partner limits assumed): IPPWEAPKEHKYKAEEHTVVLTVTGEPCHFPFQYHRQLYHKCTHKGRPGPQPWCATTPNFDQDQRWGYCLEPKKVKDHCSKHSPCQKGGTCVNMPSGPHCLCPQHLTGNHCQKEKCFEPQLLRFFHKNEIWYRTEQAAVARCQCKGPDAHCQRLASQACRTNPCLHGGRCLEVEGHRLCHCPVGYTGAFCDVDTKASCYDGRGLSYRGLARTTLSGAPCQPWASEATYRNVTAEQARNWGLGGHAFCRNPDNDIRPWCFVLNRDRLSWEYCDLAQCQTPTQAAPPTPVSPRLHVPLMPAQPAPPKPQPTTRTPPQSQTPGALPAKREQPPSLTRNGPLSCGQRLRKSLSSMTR
For each of the compounds below, state its IC50.

Example compounds with recorded IC50:
{"QUERY SMILES": "Cc1nc2[nH]ccc2c(C)c1CNC(=O)c1cc(Cl)c(C)s1", "IC50": "10 to 40 µM"}
{"QUERY SMILES": "Cc1sc(C(=O)NCc2ccc3c(N)nccc3c2)c(NCC2CCN(C)CC2)c1Cl", "IC50": "1 to 3 µM"}
{"QUERY SMILES": "N#Cc1ccc(CNCc2sc(C(=O)NCc3ccc4c(N)nccc4c3)cc2Cl)cc1", "IC50": "10 to 40 µM"}

Query string: Please look up its IC50: Nc1nccc2cc(CNC(=O)c3cc(Cl)c(COCc4cccnc4)s3)ccc12
Result string: 3 to 10 µM

* * *

Observed IC50 for Human FXIa (Homo sapiens), reported per entry below.

{"QUERY SMILES": "CCc1cc(C(=O)NCc2ccc3c(N)nccc3c2)sc1CN1CCN(c2ccncc2)CC1", "IC50": "20.5 µM"}
{"QUERY SMILES": "Cc1cc(C(=O)NCc2ccc3c(N)nccc3c2)sc1CN1CCN(c2ccncn2)CC1", "IC50": "> 40 µM"}
{"QUERY SMILES": "CCN1CCC(Cn2nc(Cl)cc2C(=O)NCc2ccc3c(N)nccc3c2)CC1", "IC50": "> 40 µM"}
{"QUERY SMILES": "Cc1n[nH]c(C(=O)NCc2ccc3c(N)nccc3c2)c1NCC1CCN(C)CC1", "IC50": "> 40 µM"}
{"QUERY SMILES": "Cc1sc(C(=O)NCc2ccc3c(N)nccc3c2)c(NCC2CCN(C)CC2)c1Cl", "IC50": "> 40 µM"}
{"QUERY SMILES": "Nc1nccc2cc(CNC(=O)c3cc(Cl)c(CN4CCN(c5cccnc5)CC4)s3)ccc12", "IC50": "> 40 µM"}

Batch: IC50 for all items listed.
1. Nc1nccc2c1CC[C@H]2NC(=O)c1cc(Cl)c(CN2CCN(c3ccncc3)CC2)s1
2. CC(C)(C)OC(=O)N1CCC(Cn2nc(Cl)cc2C(=O)NCc2ccc3c(N)nccc3c2)CC1

Result string:
1: 8.35 µM; 2: > 40 µM

* * *

A short record of pIC50 observed with Human Factor XIIa (Homo sapiens, UniProt P00748) follows.
pIC50: −log10 of the molar value.

Below: 4 molecules and their reported pIC50.
{"QUERY SMILES": "Nc1nccc2cc(CNC(=O)c3cc(Cl)cs3)ccc12", "pIC50": "4.40 to 5.00"}
{"QUERY SMILES": "CS(=O)(=O)c1ccccc1CNCc1sc(C(=O)NCc2ccc3c(N)nccc3c2)cc1Cl", "pIC50": "4.40 to 5.00"}
{"QUERY SMILES": "COc1cccc(CNCc2sc(C(=O)NCc3ccc4c(N)nccc4c3)cc2Cl)c1", "pIC50": "4.40 to 5.00"}
{"QUERY SMILES": "COc1ccc(O)c(Cc2sc(C(=O)NCc3ccc4c(N)nccc4c3)cc2Cl)c1", "pIC50": "4.40 to 5.00"}

// input: 4 molecules below; output: pIC50 for each
1. Cc1cc(C(=O)NCc2ccc3c(N)nccc3c2)sc1CN1CCN(c2ccncn2)CC1
2. CN1C(C)(C)CC(NCc2sc(C(=O)NCc3ccc4c(N)nccc4c3)cc2Cl)CC1(C)C
3. Nc1nccc2cc(CNC(=O)c3cc(Cl)c(CN4Cc5ccncc5C4)s3)ccc12
4. COc1ccccc1CNCc1sc(C(=O)NCc2ccc3c(N)nccc3c2)cc1Cl

Result string:
4.40 to 5.00
5.00 to 5.52
5.00 to 5.52
4.40 to 5.00

All figures here come from patent US20220289727A1.
